The origin of these recorded values is PubChem BioAssay (NCI).

Test system: EKVX NSCLC
Assay: NCI-60 one-dose screen, 48 h
Details: 10 µM unless noted
About 83,000 compounds went through this panel and 20% of them were active in at least one assay; those are over-represented in the sample as a whole. The source made the active and inactive calls. How the source made its calls: active means growth percent below 10; inactive means the rest.
Outcome codes: active, inactive

CCN(CC)C(=O)C1CCN(C(=O)c2ccccc2)CC1; inactive
Fc1ccc(/C=N/n2c(-c3cc(Cl)cc(Cl)c3Cl)nn(CNc3ccc(Cl)nn3)c2=S)cc1; inactive
O=C(NCCNc1nccc(-c2c(-c3cccc(O)c3)nc3sccn23)n1)c1ccc(N2CCOCC2)c(C(F)(F)F)c1; inactive
CCCCCCCC(=O)SCC/C=C/[C@@H]1CC(=O)NCc2nc(cs2)C2=N[C@@](C)(CS2)C(=O)N[C@@H](C(C)C)C(=O)N1; inactive
COc1cc(C(=O)NNC(=O)c2ccccc2C(=O)O)cc(OC)c1OC; inactive
Fc1ccc(Nc2ncnc3ccc(-c4cn[nH]c4)cc23)cc1Cl; inactive
CN(C)CCNc1nc2ccccc2c2c(=O)c3ccccc3sc12; inactive
CC(=O)CC/C=C(\C)[C@H](O)[C@H](C)C(=O)O[C@H]1C[C@H](C)C=C2C=C[C@@]3(C)O[C@@H](O)CC(=O)[C@]3(C)[C@H]21; active
Cc1cccc(Cc2cnc(NC(=O)CCc3ccc(C)o3)s2)c1; inactive
Nc1nc(Nc2ccc(OCc3cccc(F)c3)cc2)c2c(n1)[nH]c1ccc(O)cc12; inactive
Cc1cc(SCc2ccc(Cl)cc2Cl)nc(SCc2ccc(Cl)cc2Cl)n1; inactive
COc1cc(NC(=O)c2cc(OC)c3ccn(C)c3c2)cc2c1C[C@]1(C)CC[C@@H](O)C(C)(C)[C@H]1O2; inactive
NS(=O)(=O)c1ccc(CCN2C(=O)/C(=C\c3ccc(Cl)cc3)C=C2c2ccc(Oc3ccccc3)cc2)cc1; inactive
COc1ccccc1N1CCN(CCCOc2ccc(OCCCN3CCN(c4ccccc4OC)CC3)c(C(=O)c3cc(OC)c(OC)c(OC)c3)c2)CC1; inactive
COc1cccc(/C=N/C(=S)NC2(C)C3CCC(C3)C2(C)C)c1O (stereo not drawn); inactive
CCOC(=O)C1=C(N)Oc2cc(OC)ccc2C1c1ccc(F)c(F)c1 (stereo not drawn); inactive
COc1cc(/C=C/C(=O)c2ccc(Oc3ncnc4ccccc34)cc2)cc(OC)c1OC; inactive
CC(=O)n1cc(/C=C2\N=C(c3ccc(Cl)cc3)N(c3ccc(S(=O)(=O)Nc4nccs4)cc3)C2=O)c2ccccc21; inactive
